Exercise: for every item that follows, state its recorded max. activation.
testSystem: human Nurr1 (hinge region and ligand binding domain) (Homo sapiens)
Construct: expressed in transfected cells; host or cells: HEK293T
Sequence (P43354 360-595 limits assumed): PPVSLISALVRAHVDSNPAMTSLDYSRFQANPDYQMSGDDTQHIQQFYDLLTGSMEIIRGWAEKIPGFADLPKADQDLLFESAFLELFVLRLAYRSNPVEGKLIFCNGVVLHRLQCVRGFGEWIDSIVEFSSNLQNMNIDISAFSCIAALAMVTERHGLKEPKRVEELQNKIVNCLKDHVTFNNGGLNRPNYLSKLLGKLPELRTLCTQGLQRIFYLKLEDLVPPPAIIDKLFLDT
measurementDescription: Gal4-Nurr1 hybrid reporter gene assay
Format: cell-based
testSettings: maximum effect vs. 0.1% DMSO control; mean ± SD, n ≥ 3

Worked examples, 2 compounds total:
                    smilesinput          readout  experimentalresult
0       CC(C)c1nc2c(Cl)cccn2c1N  max. activation     < 1.2-fold act.
1  Nc1c(-c2ccco2)nc2c(Cl)cccn12  max. activation     < 1.2-fold act.

Next compound, max. activation to be filled in.
compound Nc1c(-c2cccc(C(F)(F)F)c2)nc2c(Cl)cccn12 , max. activation observed: < 1.2-fold act.
